Attribution: patent US4656166A

Test system: Proteus vulgaris GN 76/C.1
Assay: MIC on beta-lactamase producing strain Proteus vulgaris GN 76/C.1 (Table IV)
Format: cell-based
Details: Proteus vulgaris, GN76
experimentalReadout: MIC

[
  {
    "molecule": "CNCc1ccc(C(=O)SCC2=C(C(=O)O)N3C(=O)C(NC(=O)C(=NOC(C)(C)C(=O)O)c4csc(N)n4)C3[S+]([O-])C2)cc1 (stereo not shown)",
    "assayValue": "0.0625 µg/mL"
  },
  {
    "molecule": "Cc1ccc(CN)c(C)c1C(=O)OCC1=C(C(=O)O)N2C(=O)C(NC(=O)/C(=N\\OC(C)(C)C(=O)O)c3csc(N)n3)C2[S+]([O-])C1 (stereo not shown)",
    "assayValue": "≤ 0.0312 µg/mL"
  },
  {
    "molecule": "CC(C)(O/N=C(\\C(=O)NC1C(=O)N2C(C(=O)O)=C(COC(=O)c3cccc(CN)c3)C[S+]([O-])C12)c1csc(N)n1)C(=O)O (stereo not shown)",
    "assayValue": "≤ 0.0312 µg/mL"
  },
  {
    "molecule": "CC(C)(O/N=C(\\C(=O)NC1C(=O)N2C(C(=O)O)=C(COC(=O)c3ccc(NC(=O)CN)cc3)C[S+]([O-])C12)c1csc(N)n1)C(=O)O (stereo not shown)",
    "assayValue": "≤ 0.0312 µg/mL"
  },
  {
    "molecule": "CC(C)(O/N=C(\\C(=O)NC1C(=O)N2C(C(=O)O)=C(COC(=O)c3csc(NC(=O)CN)n3)C[S+]([O-])C12)c1csc(N)n1)C(=O)O (stereo not shown)",
    "assayValue": "≤ 0.0312 µg/mL"
  },
  {
    "molecule": "CC(C)(O/N=C(\\C(=O)NC1C(=O)N2C(C(=O)O)=C(COC(=O)CC3CCNCC3)C[S+]([O-])C12)c1csc(N)n1)C(=O)O (stereo not shown)",
    "assayValue": "0.0625 µg/mL"
  },
  {
    "molecule": "NCC(=O)Nc1ccc(C(=O)OCC2=C(C(=O)O)N3C(=O)C(NC(=O)C(=NOC4(C(=O)O)CCC4)c4csc(N)n4)C3[S+]([O-])C2)cc1 (stereo not shown)",
    "assayValue": "0.0625 µg/mL"
  },
  {
    "molecule": "CC(C)(ON=C(C(=O)NC1C(=O)N2C(C(=O)O)=C(COC(=O)c3ccc(NC(=O)CCN)cc3)C[S+]([O-])C12)c1csc(N)n1)C(=O)O (stereo not shown)",
    "assayValue": "≤ 0.0312 µg/mL"
  },
  {
    "molecule": "Cc1c(CN)cccc1C(=O)OCC1=C(C(=O)O)N2C(=O)C(NC(=O)/C(=N\\OC(C)(C)C(=O)O)c3csc(N)n3)C2[S+]([O-])C1 (stereo not shown)",
    "assayValue": "≤ 0.0312 µg/mL"
  },
  {
    "molecule": "CNCc1ccc(C(=O)OCC2=C(C(=O)O)N3C(=O)C(NC(=O)/C(=N\\OC(C)(C)C(=O)O)c4csc(N)n4)C3[S+]([O-])C2)cc1 (stereo not shown)",
    "assayValue": "≤ 0.0312 µg/mL"
  },
  {
    "molecule": "CC(C)(ON=C(C(=O)NC1C(=O)N2C(C(=O)O)=C(CSC(=O)c3cccc(CN)c3)C[S+]([O-])C12)c1csc(N)n1)C(=O)O (stereo not shown)",
    "assayValue": "0.0625 µg/mL"
  },
  {
    "molecule": "CC(C)(ON=C(C(=O)NC1C(=O)N2C(C(=O)O)=C(COC(=O)C3CCN(C(=O)CN)CC3)C[S+]([O-])C12)c1csc(N)n1)C(=O)O (stereo not shown)",
    "assayValue": "≤ 0.0312 µg/mL"
  },
  {
    "molecule": "Cc1c(CN)cccc1C(=O)SCC1=C(C(=O)O)N2C(=O)C(NC(=O)C(=NOC(C)(C)C(=O)O)c3csc(N)n3)C2[S+]([O-])C1 (stereo not shown)",
    "assayValue": "0.0625 µg/mL"
  }
]

----------
Tested on: Enterobacter RO 154
Assay: MIC, in vitro dilution method, Enterobacter RO 154 (Table III)
Assay type: cell-based
Details: RO154; Enterobacter RO 154; dilution method; read-out: MIC
MIC: recorded values
experimentalReadout: MIC

[
  {
    "compound": "NCC(=O)Nc1ccc(C(=O)OCC2=C(C(=O)O)N3C(=O)C(NC(=O)C(=NOC4(C(=O)O)CCC4)c4csc(N)n4)C3[S+]([O-])C2)cc1 (stereo not drawn)",
    "assayValue": "0.25 µg/mL"
  },
  {
    "compound": "CC(N)C(=O)N1CCC(C(=O)OCC2=C(C(=O)O)N3C(=O)C(NC(=O)C(=NOC(C)(C)C(=O)O)c4csc(N)n4)C3[S+]([O-])C2)CC1 (stereo not drawn)",
    "assayValue": "2 µg/mL"
  },
  {
    "compound": "CSCC[C@H](N)C(=O)OCC1=C(C(=O)O)N2C(=O)C(NC(=O)/C(=N\\OC(C)(C)C(=O)O)c3csc(N)n3)C2[S+]([O-])C1 (stereo partly drawn)",
    "assayValue": "8 µg/mL"
  },
  {
    "compound": "CC(ON=C(C(=O)NC1C(=O)N2C(C(=O)O)=C(CSC(=O)C3CCNCC3)C[S+]([O-])C12)c1csc(N)n1)C(=O)O (stereo not drawn)",
    "assayValue": "0.5 µg/mL"
  },
  {
    "compound": "CC(C)C[C@H](N)C(=O)OCC1=C(C(=O)O)N2C(=O)C(NC(=O)/C(=N\\OC(C)(C)C(=O)O)c3csc(N)n3)C2[S+]([O-])C1 (stereo partly drawn)",
    "assayValue": "8 µg/mL"
  },
  {
    "compound": "NCc1ccc(C(=O)SCC2=C(C(=O)O)N3C(=O)C(NC(=O)C(=NOC4(C(=O)O)CCC4)c4csc(N)n4)C3[S+]([O-])C2)cc1 (stereo not drawn)",
    "assayValue": "0.5 µg/mL"
  },
  {
    "compound": "Nc1nc(/C(=N/OC2(C(=O)O)CCC2)C(=O)NC2C(=O)N3C(C(=O)O)=C(COC(=O)C4(N)CCCC4)C[S+]([O-])C23)cs1 (stereo not drawn)",
    "assayValue": "0.25 µg/mL"
  },
  {
    "compound": "CNCc1ccc(C(=O)SCC2=C(C(=O)O)N3C(=O)C(NC(=O)C(=NOC4(C(=O)O)CCC4)c4csc(N)n4)C3[S+]([O-])C2)cc1 (stereo not drawn)",
    "assayValue": "0.5 µg/mL"
  },
  {
    "compound": "CC(C)(ON=C(C(=O)NC1C(=O)N2C(C(=O)O)=C(COC(=O)C3CCC(N)CC3)C[S+]([O-])C12)c1csc(N)n1)C(=O)O (stereo not drawn)",
    "assayValue": "2 µg/mL"
  },
  {
    "compound": "CC(C)(ON=C(C(=O)NC1C(=O)N2C(C(=O)O)=C(CSC(=O)c3ccc(NC(=O)CN)cc3)C[S+]([O-])C12)c1csc(N)n1)C(=O)O (stereo not drawn)",
    "assayValue": "4 µg/mL"
  },
  {
    "compound": "Cc1ccc(CN)c(C)c1C(=O)OCC1=C(C(=O)O)N2C(=O)C(NC(=O)/C(=N\\OC(C)(C)C(=O)O)c3csc(N)n3)C2[S+]([O-])C1 (stereo not drawn)",
    "assayValue": "0.25 µg/mL"
  },
  {
    "compound": "CC(C)(O/N=C(\\C(=O)NC1C(=O)N2C(C(=O)O)=C(COC(=O)[C@@H](N)CCCCN)C[S+]([O-])C12)c1csc(N)n1)C(=O)O (stereo partly drawn)",
    "assayValue": "8 µg/mL"
  }
]

----------
Test system: Enterobacter RO 154
Assay: MIC, in vitro dilution method, Enterobacter RO 154 (Table III)
Type: cell-based
Conditions: RO154; Enterobacter RO 154; dilution method; read-out: MIC
From the text: The products of the invention have been studied as regards their pharmacological properties and, more especially, bacteriostatic action. This has been determined in vitro by the dilution method, and the study was on Gram negative strains. Results, expressed in minimum inhibiting concentrations (MIC-- μg/ml), are collected in the following table (Table III).
Overview of reported MIC across a group of compounds:

[
  {
    "compound": "Cc1c(CN)cccc1C(=O)OCC1=C(C(=O)O)N2C(=O)C(NC(=O)C(=NOC3(C(=O)O)CCC3)c3csc(N)n3)C2[S+]([O-])C1 (stereo not drawn)",
    "subjectOfTest": "Enterobacter RO 154",
    "unitSpec": "µg/mL",
    "operator": "≤",
    "MIC": 0.125
  },
  {
    "compound": "CC(C)(CN)C(=O)OCC1=C(C(=O)O)N2C(=O)C(NC(=O)/C(=N\\OC(C)(C)C(=O)O)c3csc(N)n3)C2[S+]([O-])C1 (stereo not drawn)",
    "subjectOfTest": "Enterobacter RO 154",
    "unitSpec": "µg/mL",
    "operator": "=",
    "MIC": 4
  },
  {
    "compound": "CC(C)(O/N=C(\\C(=O)NC1C(=O)N2C(C(=O)O)=C(COC(=O)c3ccc(NC(=O)CN)cc3)C[S+]([O-])C12)c1csc(N)n1)C(=O)O (stereo not drawn)",
    "subjectOfTest": "Enterobacter RO 154",
    "unitSpec": "µg/mL",
    "operator": "=",
    "MIC": 0.5
  }
]
